# Test system: Klebsiella pneumoniae expressing VIM-1 (IHMA599644)
# Protocol Notes: Antibiotic potentiation activity: synergistic concentration (MITC95) with imipenem, growth by OD600
# Format: cell-based
# Measurement Setup: 95% inhibition of bacterial growth, strain IHMA599644
Endpoint Name: VIM1 KP599644 MITC95 (µM)

                                    compound                           measured_target         endpoint_name  reading_unit  recorded_result
 0  CC[C@H](C)[C@H](C(=O)O)[C@H](Cc1ccc(-c2ccc(-c3nnn[nH]3)cc2)cc1)c1nn[nH]n1 [Example 58]  Klebsiella pneumoniae expressing VIM-1 (IHMA599644)  VIM1 KP599644 MITC95            µM              200
 1  CC(C)C[C@H](C(=O)O)[C@H](Cc1ccc(OCCN)nc1)c1nnn[nH]1 [Example 135]  Klebsiella pneumoniae expressing VIM-1 (IHMA599644)  VIM1 KP599644 MITC95            µM               25
 2  CCC[C@H](C(=O)O)[C@H](Cc1ccc(-c2cccc(CN3CCCCC3)c2)cc1)c1nn[nH]n1 [Example 206]  Klebsiella pneumoniae expressing VIM-1 (IHMA599644)  VIM1 KP599644 MITC95            µM               50
 3  CCC[C@H](C(=O)O)[C@H](Cc1cccc(C(=O)O)n1)c1nnn[nH]1 [Example 94]  Klebsiella pneumoniae expressing VIM-1 (IHMA599644)  VIM1 KP599644 MITC95            µM              200
 4  CC(C)C[C@H](C(=O)O)[C@H](Cc1ccc(NCCO)nc1)c1nnn[nH]1 [Example 134]  Klebsiella pneumoniae expressing VIM-1 (IHMA599644)  VIM1 KP599644 MITC95            µM             18.8
 5  CC(C)C[C@H](C(=O)O)[C@H](Cc1ccc(-c2ccnc(N)c2)nc1)c1nn[nH]n1 [Example 178]  Klebsiella pneumoniae expressing VIM-1 (IHMA599644)  VIM1 KP599644 MITC95            µM               25
 6  CCC[C@H](C(=O)O)[C@H](Cc1ccc(-c2ccc3c(c2)CCC(N)C3)cc1)c1nn[nH]n1 (stereo partly shown) [Example 193]  Klebsiella pneumoniae expressing VIM-1 (IHMA599644)  VIM1 KP599644 MITC95            µM               50
 7  CC(C)C[C@H](C(=O)O)[C@H](Cc1ccc(N2CCNCC2)c(F)c1)c1nn[nH]n1 [Example 146]  Klebsiella pneumoniae expressing VIM-1 (IHMA599644)  VIM1 KP599644 MITC95            µM             15.6
 8  O=C(O)CCCC[C@H](C(=O)O)[C@H](Cc1ccccc1)c1nnn[nH]1 [Example 34]  Klebsiella pneumoniae expressing VIM-1 (IHMA599644)  VIM1 KP599644 MITC95            µM              200
 9  CCC[C@H](C(=O)O)[C@H](Cc1ccc(NCCN2CCCC(O)C2)cc1)c1nn[nH]n1 (stereo partly shown) [Example 220]  Klebsiella pneumoniae expressing VIM-1 (IHMA599644)  VIM1 KP599644 MITC95            µM               50
10  CCC[C@H](C(=O)O)[C@H](Cc1ccc2ccc(N)nc2c1)c1nnn[nH]1 [Example 147]  Klebsiella pneumoniae expressing VIM-1 (IHMA599644)  VIM1 KP599644 MITC95            µM              6.2
11  CCC[C@H](C(=O)O)[C@H](Cc1ccc(NCCN2CCOCC2)cc1)c1nn[nH]n1 [Example 216]  Klebsiella pneumoniae expressing VIM-1 (IHMA599644)  VIM1 KP599644 MITC95            µM              150
12  CCC(C)[C@H](C(=O)O)[C@H](Cc1ccccc1)c1nnn[nH]1 (stereo partly shown) [Example 19]  Klebsiella pneumoniae expressing VIM-1 (IHMA599644)  VIM1 KP599644 MITC95            µM               50
13  CCC[C@H](C(=O)O)[C@H](Cc1ccc(-c2cnc(NC(C)=O)nc2)nc1)c1nn[nH]n1 [Example 160]  Klebsiella pneumoniae expressing VIM-1 (IHMA599644)  VIM1 KP599644 MITC95            µM               75
14  O=C(O)[C@@H](C1CCOCC1)[C@H](Cc1ccccc1)c1nnn[nH]1 [Example 12]  Klebsiella pneumoniae expressing VIM-1 (IHMA599644)  VIM1 KP599644 MITC95            µM              200
15  CCC[C@H](C(=O)O)[C@H](Cc1ccc(-c2ccc(C(C)N3CCOCC3)cc2)cc1)c1nn[nH]n1 (stereo partly shown) [Example 192]  Klebsiella pneumoniae expressing VIM-1 (IHMA599644)  VIM1 KP599644 MITC95            µM              200
